binders and their reported ELISA
- measurement_target: T1, hVEGF-A (8-109) (human, UniProt P15692 214-315)
- T1 sequence (looked up): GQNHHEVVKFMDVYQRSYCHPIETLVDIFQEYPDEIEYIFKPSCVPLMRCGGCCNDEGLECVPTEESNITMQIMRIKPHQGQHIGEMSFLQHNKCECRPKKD
- experiment_description: spot phage ELISA
- Procedure: After four rounds of binding selection, individual phage clones were picked and inoculated into 450 μl 2YT media containing 50 µg/ml Carbenecillin and M13-KO7 helper phage in 96-well blocks, which were grown at 37° C. overnight. […] The plates were washed and bound phage was detected with anti-M13-HRP followed by TMB substrate. In these assays, phage binding to BSA alone was tested in parallel to assess background binding. […] Positive clones were subjected to DNA sequence analysis.

binder	ELISA
GCNLMHPFWGCKQDSDCLAGCVCHWYQSCG (designed binder) [VEGF_CKP9.51]	1
GCRLLEPSWGCKQDSDCLAGCVCQWYQSCG (designed binder) [VEGF_CKP9.72]	0.6
GCQISQPFWGCKQDSDCLAGCVCHFYNSCG (designed binder) [VEGF_CKP9.3]	1.6
GCDRMQPYWGCKQDSDCLAGCVCQWYKSCG (designed binder) [VEGF_CKP9.11]	1.1
GCQLMQPFWGCKQDSDCLAGCVCHWYQSCG (designed binder, also called E9) [VEGF_CKP9]	0.4
GCKLLQPMWGCKQDSDCLAGCVCRWYQSCG (designed binder) [VEGF_CKP9.14]	2
GCNIMLPFWGCKQDSDCLAGCVCQYYQSCG (designed binder, also called EM54) [VEGF_CKP9.54]	2.1
GCKLFEPLWGCKQDSDCLAGCVCRWYESCG (designed binder) [VEGF_CKP9.96]	1.2
GCKIMQPLWGCKQDSDCLAGCVCLWYDSCG (designed binder) [VEGF_CKP9.47]	1
GCQLLQPLWGCKQDSDCLAGCVCRWYQSCG (designed binder) [VEGF_CKP9.71]	1
GCDVLQPFWGCKQDSDCLAGCVCHWYQSCG (designed binder) [VEGF_CKP9.2]	2.4
GCDVMQPYWGCKQDSDCLAGCVCHWYNSCG (designed binder, also called EM63) [VEGF_CKP9.63]	2
GCHLLLPLWGCKQDSDCLAGCVCRWYHSCG (designed binder) [VEGF_CKP9.76]	1.3
GCQLLEPMWGCKQDSDCLAGCVCHWYNSCG (designed binder) [VEGF_CKP9.9]	1.1
GCALLQPLWGCKQDSDCLAGCVCRWYNSCG (designed binder) [VEGF_CKP9.69]	1
